# measured_on: mammalian-expressed (CHO cell) human IL-13 (human, UniProt P35225 35-146, limits assumed)
# Sequence (P35225 other isoform, or with tags, fused parts or gaps limits assumed): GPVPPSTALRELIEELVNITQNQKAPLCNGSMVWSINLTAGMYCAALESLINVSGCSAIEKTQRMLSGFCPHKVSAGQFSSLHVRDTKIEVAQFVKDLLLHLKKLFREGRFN
# protocol_details: cell-based or functional assay
quantity: Mean ND50 for 2 assays (µg/mL)
Dear colleague, please return just the value in µg/mL, with no unit written.

The reported Mean ND50 for 2 assays of the binder chimaeric 6A1 (antibody, human IgG1, V domains shown, Parent murine 6A1 V regions on human IgG1/k wild type C regions, expressed in CHO cells; also called 6A1c; 6A1 chimaeric antibody) VH: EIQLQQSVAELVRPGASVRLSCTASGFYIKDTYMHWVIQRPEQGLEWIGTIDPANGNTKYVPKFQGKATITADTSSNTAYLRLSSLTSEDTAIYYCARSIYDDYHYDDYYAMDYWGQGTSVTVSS VL: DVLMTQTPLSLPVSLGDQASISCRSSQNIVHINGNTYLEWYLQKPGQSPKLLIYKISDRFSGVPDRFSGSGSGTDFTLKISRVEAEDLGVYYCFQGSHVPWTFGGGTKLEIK was 0.285

The reported Mean ND50 for 2 assays of the binder L1+A1 (antibody, human IgG1, kappa, V domains shown, Humanised 6A1, VH construct A1 and VL construct L1, human gamma1 wild type / kappa constant regions; also called A1L1; humanised anti-IL-13 mAb L1+A1) VH: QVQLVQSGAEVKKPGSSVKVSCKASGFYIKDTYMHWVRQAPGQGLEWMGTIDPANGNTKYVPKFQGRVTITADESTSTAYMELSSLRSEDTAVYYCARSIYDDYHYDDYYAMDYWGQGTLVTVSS VL: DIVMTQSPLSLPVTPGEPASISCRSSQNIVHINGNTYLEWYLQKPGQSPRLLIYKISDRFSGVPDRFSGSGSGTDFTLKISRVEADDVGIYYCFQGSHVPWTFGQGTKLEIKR was 0.975

The reported Mean ND50 for 2 assays of the binder L2+A1 (antibody, human IgG1, kappa, V domains shown, Humanised 6A1, VH construct A1 and VL construct L2; also called A1L2) VH: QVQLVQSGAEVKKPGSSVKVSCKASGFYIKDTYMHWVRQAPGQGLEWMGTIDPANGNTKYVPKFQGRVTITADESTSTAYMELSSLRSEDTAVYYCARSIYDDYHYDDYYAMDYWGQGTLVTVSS VL: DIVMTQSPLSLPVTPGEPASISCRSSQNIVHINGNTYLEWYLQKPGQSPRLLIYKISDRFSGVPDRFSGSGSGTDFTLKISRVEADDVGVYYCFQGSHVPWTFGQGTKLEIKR was 1.2

The reported Mean ND50 for 2 assays of the binder monoclonal antibody 6A1 (antibody, IgG1, V domains shown, also called 6A1 parental mAb; parental mouse mAb 6A1) VH: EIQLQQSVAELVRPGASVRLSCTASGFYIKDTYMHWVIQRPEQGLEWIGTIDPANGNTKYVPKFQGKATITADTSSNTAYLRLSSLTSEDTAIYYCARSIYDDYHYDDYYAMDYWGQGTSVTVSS VL: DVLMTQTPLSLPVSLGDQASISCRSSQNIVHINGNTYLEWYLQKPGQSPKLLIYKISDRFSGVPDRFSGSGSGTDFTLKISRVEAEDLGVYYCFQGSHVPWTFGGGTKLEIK was 0.44
